meta.source: patent US9849185B2

Entries and their measured Tmax of hydromorphone released from the conjugate follow.
- MEASUREMENT_PROTOCOL: Oral pharmacokinetic study in rats (released hydromorphone in plasma)
- CONDITION_DESCRIPTION: rat, oral solution, dose equimolar to 2.0 mg/kg hydromorphone, plasma
PROPERTY_NAME: Tmax of hydromorphone released from the conjugate (min)

>>> obs_value("CN1CCC23c4c5ccc(OC(=O)C=Cc6ccccc6)c4OC2C(=O)CCC3C1C5 (stereo not drawn) [3-Cinnamate-HM, 3-cinnamate-hydromorphone]")
15
>>> obs_value("CN1CCC23c4c5ccc(OC(=O)c6ccc(O)cc6)c4OC2C(=O)CCC3C1C5 (stereo not drawn) [3-p-Salicylic-HM, 3-p-salicylic-hydromorphone]")
15
>>> obs_value("CC(=O)Oc1ccccc1C(=O)OC1=CC[C@H]2[C@H]3Cc4ccc(OC(=O)c5ccccc5OC(C)=O)c5c4[C@@]2(CCN3C)[C@H]1O5 [3,6-di-Aspirin-HM, 3,6-di-aspirin-hydromorphone]")
15

---

- MEASUREMENT_PROTOCOL: Oral pharmacokinetic study in rats (released hydromorphone in plasma)
- CONDITION_DESCRIPTION: rat, oral solution, dose equimolar to 2.0 mg/kg hydromorphone, plasma
Lab note: cut-off is 30 ng·h/mL. Strictly less in AUC of hydromorphone released from the conjugate is Condition met. Exactly 30 ng·h/mL or more is Condition not met.

>>> group("CN1CCC23c4c5ccc(O)c4OC2C(OC(=O)c2ccccc2O)=CCC3C1C5 (stereo not shown) [6-o-Salicylate-HM, 6-o-salicylate-hydromorphone]")
"Condition not met"
>>> group("CC(=O)Oc1ccccc1C(=O)OC1=CC[C@H]2[C@H]3Cc4ccc(OC(=O)c5ccccc5OC(C)=O)c5c4[C@@]2(CCN3C)[C@H]1O5 [3,6-di-Aspirin-HM, 3,6-di-aspirin-hydromorphone]")
"Condition not met"
>>> group("CN1CCC23c4c5ccc(OC(=O)c6ccccc6)c4OC2C(=O)CCC3C1C5 (stereo not shown) [3-Benzoate-HM, 3-benzoate-hydromorphone]")
"Condition not met"
>>> group("CC(=O)Oc1ccccc1C(=O)Oc1ccc2c3c1OC1C(=O)CCC4C(C2)N(C)CCC314 (stereo not shown) [Conjugate 3-Aspirin-HM, 3-aspirin-hydromorphone]")
"Condition not met"
>>> group("CN1CCC23c4c5ccc(OC(=O)c6ccc(O)cc6)c4OC2C(=O)CCC3C1C5 (stereo not shown) [3-p-Salicylic-HM, 3-p-salicylic-hydromorphone]")
"Condition not met"
>>> group("COc1ccc2cc(C(C)C(=O)OC3=CCC4C5Cc6ccc(O)c7c6C4(CCN5C)C3O7)ccc2c1 (stereo not shown) [6-Naproxen-HM, 6-naproxen-hydromorphone]")
"Condition not met"
>>> group("CN1CCC23c4c5ccc(OC(=O)c6ccncc6)c4OC2C(=O)CCC3C1C5 (stereo not shown) [3-Isoniacin-HM, 3-isoniacin-hydromorphone]")
"Condition met"
>>> group("CN1CC[C@]23c4c5ccc(OC(=O)c6ccccc6Nc6ccccc6)c4OC2C(=O)CC[C@H]3[C@H]1C5 (stereo partly shown) [3-Fenamate-HM, 3-fenamate-hydromorphone]")
"Condition not met"
>>> group("CN1CCC23c4c5ccc(OC(=O)C=Cc6ccccc6)c4OC2C(=O)CCC3C1C5 (stereo not shown) [3-Cinnamate-HM, 3-cinnamate-hydromorphone]")
"Condition met"

---

- MEASUREMENT_PROTOCOL: Oral pharmacokinetic study in rats (released hydromorphone in plasma)
- CONDITION_DESCRIPTION: rat, oral solution, dose equimolar to 2.0 mg/kg hydromorphone, plasma
PROPERTY_NAME: Tmax of hydromorphone released from the conjugate (min)

>>> obs_value("COc1ccc2cc(C(C)C(=O)OC3=CCC4C5Cc6ccc(O)c7c6C4(CCN5C)C3O7)ccc2c1 (stereo not drawn) [6-Naproxen-HM, 6-naproxen-hydromorphone]")
15
>>> obs_value("CN1CCC23c4c5ccc(OC(=O)c6ccccc6)c4OC2C(=O)CCC3C1C5 (stereo not drawn) [3-Benzoate-HM, 3-benzoate-hydromorphone]")
30
>>> obs_value("CN1CCC23c4c5ccc(O)c4OC2C(OC(=O)c2ccccc2O)=CCC3C1C5 (stereo not drawn) [6-o-Salicylate-HM, 6-o-salicylate-hydromorphone]")
15
